Where a SMILES comes first, the peptide text is derived from it. The star is where a group is joined. NH(6-Ac-2-naphthyl) = CC(=O)c1ccc2cc(N*)ccc2c1

molecule: CC(=O)N[C@@H](Cc1c[nH]c2ccccc12)C(=O)N[C@@H](CCC(=O)O)C(=O)N[C@@H](Cc1c[nH]cn1)C(=O)N[C@@H](CC(=O)O)C(=O)Nc1ccc2cc(C(C)=O)ccc2c1 [C1RB, Ac-WEHD-AAN] (Ac-WEHD-{NH(6-Ac-2-naphthyl)})
δΦ (two-photon action cross-section) [GM]: 2.3

molecule: CC(=O)N[C@@H](Cc1ccc(O)cc1)C(=O)N[C@H](C(=O)N[C@@H](C)C(=O)N[C@@H](CC(=O)O)C(=O)Nc1ccc2cc(C(C)=O)ccc2c1)C(C)C
δΦ (two-photon action cross-section) [GM]: 6.9

molecule: CC(=O)N[C@@H](CC(=O)O)C(=O)N[C@@H](CCC(=O)O)C(=O)N[C@H](C(=O)N[C@@H](CC(=O)O)C(=O)Nc1ccc2cc(C(C)=O)ccc2c1)C(C)C
δΦ (two-photon action cross-section) [GM]: 2.9

molecule: CC(=O)c1ccc2cc(NC(=O)[C@H](CC(=O)O)NC(=O)[C@@H](NC(=O)[C@H](CCC(=O)O)NC(=O)[C@H](CC(=O)O)NC(=O)CCC[P+](c3ccccc3)(c3ccccc3)c3ccccc3)C(C)C)ccc2c1
δΦ (two-photon action cross-section) [GM]: 1.4

molecule: CC(=O)N[C@@H](CC(C)C)C(=O)N[C@@H](CCC(=O)O)C(=O)N[C@@H](Cc1c[nH]cn1)C(=O)N[C@@H](CC(=O)O)C(=O)Nc1ccc2cc(C(C)=O)ccc2c1 [C9RA, Ac-LEHD-AAN] (Ac-LEHD-{NH(6-Ac-2-naphthyl)})
δΦ (two-photon action cross-section) [GM]: 3.2

molecule: CC[C@H](C)[C@H](NC(C)=O)C(=O)N[C@@H](CCC(=O)O)C(=O)N[C@H](C(=O)N[C@@H](CC(=O)O)C(=O)Nc1ccc2cc(C(C)=O)ccc2c1)[C@@H](C)O [C8RA, Ac-IETD-AAN] (Ac-IETD-{NH(6-Ac-2-naphthyl)})
δΦ (two-photon action cross-section) [GM]: 2.4

molecule: CC[C@H](C)[C@H](NC(=O)[C@H](CCC(=O)O)NC(=O)[C@@H](NC(C)=O)C(C)C)C(=O)N[C@@H](CC(=O)O)C(=O)Nc1ccc2cc(C(C)=O)ccc2c1 [C6RA, Ac-VEID-AAN] (Ac-VEID-{NH(6-Ac-2-naphthyl)})
δΦ (two-photon action cross-section) [GM]: 1.8

* * *

Where a SMILES comes first, the peptide text is derived from it. The star is where a group is joined. NH(6-Ac-2-naphthyl) = CC(=O)c1ccc2cc(N*)ccc2c1
readoutKind: λex (absorption/excitation maximum) (nm)

molecule: CC(=O)c1ccc2cc(NC(=O)[C@H](CC(=O)O)NC(=O)[C@@H](NC(=O)[C@H](CCC(=O)O)NC(=O)[C@H](CC(=O)O)NC(=O)CCC[P+](c3ccccc3)(c3ccccc3)c3ccccc3)C(C)C)ccc2c1
readoutKind: λex (absorption/excitation maximum)
quantitativeReadout: 317
--
molecule: CC(=O)N[C@@H](Cc1ccc(O)cc1)C(=O)N[C@H](C(=O)N[C@@H](C)C(=O)N[C@@H](CC(=O)O)C(=O)Nc1ccc2cc(C(C)=O)ccc2c1)C(C)C
readoutKind: λex (absorption/excitation maximum)
quantitativeReadout: 316
--
molecule: CC[C@H](C)[C@H](NC(C)=O)C(=O)N[C@@H](CCC(=O)O)C(=O)N[C@H](C(=O)N[C@@H](CC(=O)O)C(=O)Nc1ccc2cc(C(C)=O)ccc2c1)[C@@H](C)O [C8RA, Ac-IETD-AAN] (Ac-IETD-{NH(6-Ac-2-naphthyl)})
readoutKind: λex (absorption/excitation maximum)
quantitativeReadout: 316
